Assay: Cytotoxicity (MTT assay) against mouse peritoneal macrophages
Format: cell-based, mouse (Balb/c)
Conditions: Balb/c, mouse, mouse peritoneal macrophages, murine peritoneal macrophages, read-out: CC50: concentration that is cytotoxic against 50% of macrophages
measurement-name: CC50 at 24 h (mM)
Just the number please, in mM, no unit attached.

[
  {
    "compound": "CC(=O)Oc1ccccc1C(=O)O [HL1, acetylsalicylic acid]",
    "CC50 at 24 h, mM": 0.58
  }
]

Alright, here's another compound for you.
-- ask Please look up its CC50 at 24 h: CC(=O)Oc1cccc(C(=O)O)c1 [HL2, 3-acetoxybenzoic acid]
-- reply 2.77
